- Tested on: ME-1 (Acute Myeloid Leukemia)
- Assay name: combination Emax (second highest fraction inhibited in the dose matrix, 72 h); higher = more inhibition; extreme values may be limits of the assay
Property: combination Emax
Answer using only a numeral; do not append any unit.

Q: Reported combination Emax, compound N#Cc1cnc(Nc2cc(NC[C@H]3CNCCO3)c(C(F)(F)F)cn2)cn1 [SRA737] + O=c1[nH]cc(F)c(=O)[nH]1 [5-Fluorouracil] (first compound max 10 µM, 7x7, partner max 20 µM) : ____
Result: 0.471

Q: Reported combination Emax, compound CN(CCO)CC[C@H](CSc1ccccc1)Nc1ccc(S(=O)(=O)NC(=O)c2ccc(N3CCC([C@@H](O)c4ccccc4-c4ccc(Cl)cc4)CC3)cc2)cc1S(=O)(=O)C(F)(F)F [AZD4320] + CC(=O)O[C@H]1C(=O)[C@@]2(C)[C@H]([C@H](OC(=O)c3ccccc3)[C@]3(O)C[C@H](OC(=O)[C@H](O)[C@@H](NC(=O)c4ccccc4)c4ccccc4)C(C)=C1C3(C)C)[C@]1(OC(C)=O)CO[C@@H]1C[C@@H]2O [Paclitaxel] (first compound max 1 µM, 7x7, partner max 3 µM) : ____
Result: 1

Q: Reported combination Emax, compound Cc1cc2ncnn2cc1Nc1ncc2c(n1)n(C1CCOCC1)c(=O)n2C [AZD7648] + CCN(CCO)CCCOc1ccc2c(Nc3cc(CC(=O)Nc4cccc(F)c4)[nH]n3)ncnc2c1 [AZD2811] (first compound max 10 µM, 7x7, partner max 1 µM) : ____
Result: 0.27

Q: Reported combination Emax, compound COc1cccc2c1C(=O)c1c(O)c3c(c(O)c1C2=O)C[C@@](O)(C(=O)CO)C[C@@H]3O[C@H]1C[C@H](N)[C@H](O)[C@H](C)O1 [Doxorubicin] + Cc1cc2ncnn2cc1Nc1ncc2c(n1)n(C1CCOCC1)c(=O)n2C [AZD7648] (first compound max 1 µM, 7x7, partner max 10 µM) : ____
Result: 0.355
